Measured values drawn from ChEMBL document CHEMBL1141418 for this set.

Species on record: Rattus norvegicus
Test: Antidiuretic activity in rat
Type: functional, Urine
Positions of bridges follow the written chain, without caps; N, C: chain ends. Non-standard residues stand in square brackets, D forms with d. Residues, ends and D or L forms follow the SMILES beside them. Cha = N[C@@H](CC1CCCCC1)C(=O)O; Dab = NCC[C@H](N)C(=O)O; Mpa = O=C(O)CCS
RECORDED ENDPOINT: Activity (U/mg)
Give just the number in U/mg; leave the unit off.

- COMPOUND: "CC(C)[C@@H]1NC(=O)[C@H](Cc2ccccc2)NC(=O)[C@H](Cc2ccc(O)cc2)NC(=O)CCSSC[C@@H](C(=O)N2CCC[C@H]2C(=O)N[C@H](CCCNC(=N)N)C(=O)NCC(N)=O)NC(=O)[C@H](CC(N)=O)NC1=O ([Mpa]YFVNCP[dR]G-NH2; disulfide 1-6)"
  VALUE OBSERVED: 1230

Switching to the query record.
The compound NCC[C@H](NC(=O)[C@@H]1CCCN1C(=O)[C@@H]1CSSCCC(=O)N[C@@H](Cc2ccc(O)cc2)C(=O)N[C@@H](Cc2ccccc2)C(=O)N[C@@H](CC2CCCCC2)C(=O)N[C@@H](CC(N)=O)C(=O)N1)C(=O)NCC(N)=O ([Mpa]YF[Cha]NCP[Dab]G-NH2; disulfide 1-6) showed Activity equal to 1

---

Species: Rattus norvegicus
Experiment: Antidiuretic activity in rat
Format: functional, Urine
Positions of bridges follow the written chain, without caps; N, C: chain ends. Non-standard residues stand in square brackets, D forms with d. Residues, ends and D or L forms follow the SMILES beside them. Orn = NCCC[C@H](N)C(=O)O; Dap = NC[C@H](N)C(=O)O; Mpa = O=C(O)CCS
Reported Activity values for a set of compounds

The recorded Activity for NC[C@H](NC(=O)[C@@H]1CCCN1C(=O)[C@@H]1CSSCCC(=O)N[C@@H](Cc2ccc(O)cc2)C(=O)N[C@@H](Cc2ccccc2)C(=O)N[C@@H](CCC(N)=O)C(=O)N[C@@H](CC(N)=O)C(=O)N1)C(=O)NCC(N)=O ([Mpa]YFQNCP[Dap]G-NH2; disulfide 1-6) is 165 U/mg

Activity recorded for this compound, CC(C)[C@@H]1NC(=O)[C@H](Cc2ccccc2)NC(=O)[C@H](Cc2ccc(O)cc2)NC(=O)CCSSC[C@@H](C(=O)N2CCC[C@H]2C(=O)N[C@@H](CCCNC(=N)N)C(=O)NCC(N)=O)NC(=O)[C@H](CC(N)=O)NC1=O ([Mpa]YFVNCPRG-NH2; disulfide 1-6) , is 1150 U/mg

Quick note, Activity for CC(C)C[C@@H]1NC(=O)[C@H](Cc2ccccc2)NC(=O)[C@H](Cc2ccc(O)cc2)NC(=O)CCSSC[C@@H](C(=O)N2CCC[C@H]2C(=O)N[C@@H](CCCN)C(=O)NCC(N)=O)NC(=O)[C@H](CC(N)=O)NC1=O ([Mpa]YFLNCP[Orn]G-NH2; disulfide 1-6) landed at 5.7 U/mg

Lab note: measured Activity of N=C(N)NCCC[C@@H](NC(=O)[C@@H]1CCCN1C(=O)[C@@H]1CSSCCC(=O)N[C@@H](Cc2ccc(O)cc2)C(=O)N[C@@H](Cc2ccccc2)C(=O)N[C@@H](CCC(N)=O)C(=O)N[C@@H](CC(N)=O)C(=O)N1)C(=O)NCC(N)=O (stereo in doubt; form 2) [DESMOPRESSIN] was 1200 U/mg

NCCCC[C@H](NC(=O)[C@@H]1CCCN1C(=O)[C@@H]1CSSCCC(=O)N[C@@H](Cc2ccc(O)cc2)C(=O)N[C@@H](Cc2ccccc2)C(=O)N[C@@H](CCCN)C(=O)N[C@@H](CC(N)=O)C(=O)N1)C(=O)NCC(N)=O ([Mpa]YF[Orn]NCPKG-NH2; disulfide 1-6) has a reported Activity of 7.8 U/mg
